Tested on: SN12C renal
Experiment: NCI tumour cell line growth inhibition, 48 h

COMPOUND | ASSAY_SYSTEM | ENDPOINT_UNIT | VALUE_OPERATOR | TGI
COc1cccc(C(=O)C(O)c2cccc(OC)c2OC)c1OC (centres undefined) | SN12C renal | µM | > | 100
N#Cc1c(C#N)c(-c2ccco2)n(/N=C/c2ccco2)c1N | SN12C renal | µM | > | 100
CN1C(=N\S(=O)(=O)c2ccc(Cl)cc2)/C(=N/N=P(c2ccccc2)(c2ccccc2)c2ccccc2)c2ccccc21 | SN12C renal | µM | > | 100
O=C1c2cccc3cc4ccccc4c(c23)C(=O)N1CCCNCCNCCCN1C(=O)c2cccc3cc4ccccc4c(c23)C1=O | SN12C renal | µM | = | 1.86
COC[C@H](Cc1ccccc1)N=Cc1ccccc1 | SN12C renal | µM | > | 100
O=C(/C=C/CN1CCCCC1)Nc1cc2c(Nc3ccc(F)c(Cl)c3F)ncnc2cc1OCCOC(F)F | SN12C renal | µM | = | 5.93
Cc1ccc(S(=O)(=O)NC2(C=O)CCC(C(C)(C)C)CC2)cc1 (centres undefined) | SN12C renal | µM | = | 68.7
Cn1c([N+](=O)[O-])cnc1/C=C1\Oc2ccc(Cl)cc2C1=O | SN12C renal | µM | = | 3.46
C=CC(=O)N1CC[C@@H](Oc2nc(Nc3ccc(N4CCC(N5CCN(C)CC5)CC4)cc3)c(C(N)=O)nc2CC)C1 | SN12C renal | µM | > | 100
